# Tested on: PAK6;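 also: KINOMEscan kinase panel screen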
# SETUP CONDITIONS: concentration: 1 μM, replicates: in singlicate; n = 1

[
  {
    "MOLECULE": "CN(C)CCOc1ccc(-c2cc(-c3ccc(Cl)c(O)c3)c(-c3ccncc3)[nH]2)cc1.Cl.Cl",
    "%Inh (%)": 0
  },
  {
    "MOLECULE": "Cc1cccc(Nc2nc(N[C@H]3CCCC[C@H]3N)ncc2C(N)=O)c1.Cl",
    "%Inh (%)": 89
  },
  {
    "MOLECULE": "CCNc1nccc(-c2c(-c3ccc(F)cc3)ncn2C2CCN(C)CC2)n1",
    "%Inh (%)": 30
  },
  {
    "MOLECULE": "Cc1ccc(O)cc1Nc1ccnc2ccc(C(C)(C)C)cc12",
    "%Inh (%)": 34
  },
  {
    "MOLECULE": "Cl.Cl.NC(CNC(=O)c1cc(Br)c(-c2ccnc3[nH]ccc23)s1)c1ccccc1 (stereo not drawn)",
    "%Inh (%)": 16
  },
  {
    "MOLECULE": "Cc1ccc(NC(=O)c2cccc(N3CCCCC3)c2)cc1-c1ccc(C(=O)NCC2CC2)cc1",
    "%Inh (%)": 0
  },
  {
    "MOLECULE": "CCn1c(-c2nonc2N)nc2c(-c3ccccc3)ncc(OCCCN)c21.O=C(O)C(F)(F)F.O=C(O)C(F)(F)F",
    "%Inh (%)": 0
  },
  {
    "MOLECULE": "O=C(Nc1n[nH]c2nc(-c3cccc(O)c3)ccc12)C1CC1",
    "%Inh (%)": 100
  },
  {
    "MOLECULE": "COc1ccc(NC(=O)c2ccoc2)cc1-c1ccc(C(=O)NCC2CC2)cc1",
    "%Inh (%)": 0
  },
  {
    "MOLECULE": "CN(C)c1ncnc2nc[nH]c12",
    "%Inh (%)": 0
  },
  {
    "MOLECULE": "Cc1cc(-c2ccnc(Nc3cccc(C#N)c3)n2)cc(C)c1O",
    "%Inh (%)": 0
  },
  {
    "MOLECULE": "COC(=O)Nc1nc2ccc(Oc3ccc(CC(=O)Nc4cc(C(F)(F)F)ccc4F)cc3)cc2[nH]1",
    "%Inh (%)": 0
  },
  {
    "MOLECULE": "Nc1ncnc2scc(-c3ccc(NC(=O)Cc4cc(F)ccc4F)cc3)c12.O=C(O)C(F)(F)F",
    "%Inh (%)": 0
  },
  {
    "MOLECULE": "COc1cccc(CC(=O)N2CCc3cc(-c4cn(C)c5ncnc(N)c45)ccc32)c1",
    "%Inh (%)": 0
  },
  {
    "MOLECULE": "CN(c1ccc(NC(=O)N2CCN(CCCN3CCOCC3)CC2)cc1)c1ccnc(Nc2ccc(CS(C)(=O)=O)cc2)n1.Cl",
    "%Inh (%)": 25
  },
  {
    "MOLECULE": "Cl.N#CCc1ccc(Nc2nccc(Nc3ccc(Oc4ccccc4)cc3)n2)cc1",
    "%Inh (%)": 0
  },
  {
    "MOLECULE": "CCNC(=O)/C=C/c1n[nH]c2cc(Sc3ccccc3C(=O)NC)ccc12",
    "%Inh (%)": 4
  },
  {
    "MOLECULE": "O=C(Nc1n[nH]c2cc(-c3cccs3)ccc12)C1CC1",
    "%Inh (%)": 0
  },
  {
    "MOLECULE": "CC(C)c1nc(-c2cccc(NS(=O)(=O)c3c(F)cccc3F)c2)c(-c2ccnc(Nc3ccc(N4CCOCC4)nc3)n2)s1.Cl",
    "%Inh (%)": 0
  },
  {
    "MOLECULE": "CSc1ccc(NC2=C(c3ccc(Cl)cc3)C(=O)NC2=O)cc1",
    "%Inh (%)": 29
  },
  {
    "MOLECULE": "CN(c1ccc2c(c1)nc(NCc1ccccc1)n2C)c1ccnc(Nc2ccc(CS(C)(=O)=O)cc2)n1.Cl",
    "%Inh (%)": 13
  },
  {
    "MOLECULE": "CN1CCN(Cc2ccc(NC(=O)Nc3ccc(N(C)c4ccnc(Nc5ccc(CS(C)(=O)=O)cc5)n4)cc3)cc2)CC1.Cl",
    "%Inh (%)": 34
  },
  {
    "MOLECULE": "N#CC1(c2cccc(C(=O)Nc3cccc(Oc4ccc5nc(NC(=O)C6CC6)sc5n4)c3)c2)CC1",
    "%Inh (%)": 15
  },
  {
    "MOLECULE": "COc1cc(Nc2ccnc3cc(-c4ccncc4)ccc23)cc(OC)c1OC.Cl",
    "%Inh (%)": 0
  },
  {
    "MOLECULE": "COc1cccc(NC(=O)NCCNc2ccnc(Nc3ccc(F)cc3)n2)c1",
    "%Inh (%)": 0
  },
  {
    "MOLECULE": "CC(C)NCC(Cc1ccccc1)NC(=O)c1cc(Br)c(-c2ccnc3[nH]ccc23)s1.Cl.Cl (stereo not drawn)",
    "%Inh (%)": 47
  },
  {
    "MOLECULE": "Nc1cccc(-c2ccc3c(N)n[nH]c3c2)c1",
    "%Inh (%)": 6
  },
  {
    "MOLECULE": "O=C(Nc1c(F)cccc1F)c1cc(C(=O)c2ccccc2F)c[nH]1",
    "%Inh (%)": 0
  },
  {
    "MOLECULE": "Cc1ccc(C)c(NC(=O)Nc2ccc(C)c(-c3ccc(C(=O)Nc4ccncc4)cc3)c2)c1",
    "%Inh (%)": 0
  },
  {
    "MOLECULE": "Fc1cc(Cl)ccc1Nc1ccnc2cc(-c3ccc(CN4CCSCC4)o3)ccc12",
    "%Inh (%)": 0
  }
]
